B1: PIP5K1C peptide 640-655 (Phosphatidylinositol 4-phosphate 5-kinase type-1 gamma), 16-mer library wild type / TLN1 PTB (TLN1 Phosphotyrosine-binding (PTB) domain, residues 309-401) (parent)
chain 1: FPTDERSWVYSPLHYS
chain 2: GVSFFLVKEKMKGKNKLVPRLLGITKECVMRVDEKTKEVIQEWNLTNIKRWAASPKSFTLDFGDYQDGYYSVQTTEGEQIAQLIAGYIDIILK

- Variants of: B1
- PROTOCOL: proteomic peptide phage display deep mutational scan (ProP-PD DMS): M13 P8 16-mer library selected against immobilised GST-tagged bait for four days (rounds), NGS of the eluted pools per day and pseudo-replica
- PROTOCOL CONDITIONS: with TLN1 PTB (TLN1 Phosphotyrosine-binding (PTB) domain, residues 309-401); bait immobilised on MaxiSorp plates (10 µg), library pre-cleared on GST, 2 h binding at 4 °C, five washes; one round per day, days 1-4; value from days 2 and 3; keep out of graded; scale: average fractional NGS count over selection days 2 and 3
Items are presented alongside their recorded screen value.
READOUT TYPE: screen value

chain 1 Y15P    0.000167
chain 1 Y10S    0.00342
chain 1 H14S    0.000388
chain 1 E5A    0.000188
chain 1 S16G    0.00097
chain 1 T3V    4.5e-05
chain 1 E5F    0.000369
chain 1 D4V    5.15e-05
chain 1 P2G    9.49e-05
chain 1 D4A    0.000109
chain 1 R6L    0.000156
chain 1 S16H    0.00034
chain 1 L13Y    0.000435
chain 1 Y15E    0.000347
chain 1 R6G    5.92e-05
chain 1 Y15M    0.000141
chain 1 D4Q    0.000121
chain 1 S16F    0.000114
chain 1 Y15W    0.000911
chain 1 P2H    2.4e-05
chain 1 S16N    0.000165
chain 1 Y15I    0.000186
